Provenance of the data: ChEMBL document CHEMBL1201862

Biological target: SUMO-activating enzyme (Homo sapiens)
Sequence (Q9UBE0 whole entry): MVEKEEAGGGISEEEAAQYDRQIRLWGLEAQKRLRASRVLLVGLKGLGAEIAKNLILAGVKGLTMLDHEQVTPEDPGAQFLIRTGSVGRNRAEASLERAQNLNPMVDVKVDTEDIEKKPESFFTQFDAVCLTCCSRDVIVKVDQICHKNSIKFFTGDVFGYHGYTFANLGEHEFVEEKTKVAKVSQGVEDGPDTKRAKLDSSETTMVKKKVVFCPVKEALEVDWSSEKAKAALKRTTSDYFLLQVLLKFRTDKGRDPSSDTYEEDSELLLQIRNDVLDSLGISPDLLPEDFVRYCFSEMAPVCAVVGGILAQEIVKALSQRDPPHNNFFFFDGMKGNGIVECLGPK
Sequence (Q9UBT2 whole entry): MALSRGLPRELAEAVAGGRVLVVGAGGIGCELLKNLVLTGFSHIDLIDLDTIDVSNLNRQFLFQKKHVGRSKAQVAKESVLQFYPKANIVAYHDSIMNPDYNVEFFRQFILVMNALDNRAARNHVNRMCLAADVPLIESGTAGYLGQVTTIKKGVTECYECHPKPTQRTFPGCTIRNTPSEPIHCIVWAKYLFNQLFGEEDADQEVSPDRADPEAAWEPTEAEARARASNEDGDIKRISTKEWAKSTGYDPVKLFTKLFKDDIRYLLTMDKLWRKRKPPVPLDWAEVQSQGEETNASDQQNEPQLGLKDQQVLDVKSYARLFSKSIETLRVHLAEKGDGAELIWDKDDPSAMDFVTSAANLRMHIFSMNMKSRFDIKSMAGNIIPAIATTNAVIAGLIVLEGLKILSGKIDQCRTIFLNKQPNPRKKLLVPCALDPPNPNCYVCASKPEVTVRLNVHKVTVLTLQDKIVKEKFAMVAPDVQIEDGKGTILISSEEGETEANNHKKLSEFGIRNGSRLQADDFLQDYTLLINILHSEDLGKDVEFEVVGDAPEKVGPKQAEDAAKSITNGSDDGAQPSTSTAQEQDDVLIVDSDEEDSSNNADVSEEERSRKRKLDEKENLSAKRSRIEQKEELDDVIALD
Assay: blockers of UBC9-mediated SUMO conjugation – biochemical, AlphaScreen, SUMOylation inhibitor project, confirmation (AID 2018)
Assay type: functional
Activity calls are given as the source filed them. Cut-off read from the data, not from the text of the source: actives have a measured IC50 and inactives only a lower limit.
QUANTITY_MEASURED: IC50

See these solved cases before continuing.
[[record]]
compound = "Cc1ccccc1C(=O)Nc1nnc(CC(=O)N/N=C/c2cn(Cc3ccccc3)c3ccccc23)s1"
quantity_measured = "IC50"
observed_result = "16.8 µM (active)"

[[record]]
compound = "CCc1nn(CC(=O)NC(C)CCc2ccccc2)c(=O)c2cc3cc(F)ccc3n12 (centres undefined)"
quantity_measured = "IC50"
observed_result = "45.3 µM (active)"

[[record]]
compound = "O=C(N/N=C/c1ccc(F)cc1)c1cc(-c2ccco2)nc2ccccc12"
quantity_measured = "IC50"
observed_result = "2.28 µM (active)"


For the compound shown here, `CCCc1cc(=O)oc2cc(OCC(=O)Nc3ccc(S(N)(=O)=O)cc3)ccc12` , give the reported IC50.
6.11 µM (active)
